# System: Salmonella typhimurium strains TA 98, TA 100, TA 1535, TA 1537, TA 1538, TA 1978
# test details: Ames assay (spot test), revertant colonies
# Format: cell-based
# settings: strain TA 1535, +S9
Could you please report measured Mean number of revertant colonies per plate, TA 1535 +S9 for the items listed next?
Give bare numbers, in colonies per plate.

{"compound": "Clc1ccc(N2CC2c2ccccc2Cl)cc1 (stereo not shown)", "assay result": 15.3}
{"compound": "Clc1ccccc1C1CN1c1ccc(Br)cc1 (stereo not shown)", "assay result": 15.0}
{"compound": "Clc1ccc(N2CC2c2ccccc2Cl)cc1Cl (stereo not shown)", "assay result": 20.3}

Then there is this compound:
Input: Suppose we examine the compound CC(=O)Nc1ccc2c(c1)Cc1ccccc1-2 [AAF, 2-acetylaminofluorene, reference compound] ; what Mean number of revertant colonies per plate, TA 1535 +S9 value has been reported?
Output: 19.7

----------
# Test system: Salmonella typhimurium strains TA 98, TA 100, TA 1535, TA 1537, TA 1538, TA 1978
# test details: Ames assay (spot test), revertant colonies
# Type: cell-based
# settings: strain TA 1538, +S9
property label: Mean number of revertant colonies per plate, TA 1538 +S9 (colonies per plate)
One number for each entry, in colonies per plate.

Would you please look over these solved cases?
{"compound": "CC(=O)Nc1ccc2c(c1)Cc1ccccc1-2 [AAF, 2-acetylaminofluorene, reference compound]", "assay result": 313.7}
{"compound": "Clc1ccc(N2CC2c2ccccc2Cl)cc1 (stereo not shown) [Compound 11]", "assay result": 26.0}
{"compound": "Clc1ccc(N2CC2c2ccccc2Cl)cc1Cl (stereo not shown) [Compound 10]", "assay result": 35.7}

Then there is this compound:
Input: Report Mean number of revertant colonies per plate, TA 1538 +S9 for Clc1ccccc1C1CN1c1ccc(Br)cc1 (stereo not shown) [Compound 1] tested on Salmonella typhimurium strains TA 98, TA 100, TA 1535, TA 1537, TA 1538, TA 1978.
Output: 26.7

----------
# System: Salmonella typhimurium strains TA 98, TA 100, TA 1535, TA 1537, TA 1538, TA 1978
# test details: Ames assay (spot test), revertant colonies
# Type: cell-based
# settings: strain TA 1537, -S9
# Protocol: This means that aziridine compounds, 1, 10, or 11, will not cause mutations in DNA arising from potential changes in frame shift and/or base pairing. […] Potential mutagenic and carcinogenic properties of the compounds were evaluated with standard Ames assay procedures (Ames et al, "Mutation Res.", 31, p. 347, 1975). […] Potential changes in frameshift were evaluated using strains TA 98, TA 1537 and TA 1538, while changes in base pairing were detected using strains TA 100 and TA 1535. […]
property label: Mean number of revertant colonies per plate, TA 1537 -S9

{"compound": "Clc1ccc(N2CC2c2ccccc2Cl)cc1Cl (stereo not shown) [Compound 10]", "assay result": "9.0 colonies per plate"}
{"compound": "Clc1ccc(N2CC2c2ccccc2Cl)cc1 (stereo not shown) [Compound 11]", "assay result": "9.7 colonies per plate"}
{"compound": "CC(=O)Nc1ccc2c(c1)Cc1ccccc1-2 [AAF, 2-acetylaminofluorene, reference compound]", "assay result": "7.7 colonies per plate"}

Then there is this compound:
Input: Suppose we examine the compound Clc1ccccc1C1CN1c1ccc(Br)cc1 (stereo not shown) [Compound 1] ; what Mean number of revertant colonies per plate, TA 1537 -S9 value has been reported?
Output: 7.5 colonies per plate

----------
# Test system: tobacco hornworm (Manduca sexta) larvae
# test details: Tobacco hornworm growth and developmental responses to feeding on diets containing the compounds
# Assay type: in vivo
# settings: 1 mM in diet
Could you please report measured No. of female Adults for the items listed next?
Give bare numbers.

Would you please look over these solved cases?
{"molecule": "Fc1ccc(N2CC2c2ccccc2Cl)cc1 (stereo not shown) [Compound 13]", "measurement target": "tobacco hornworm (Manduca sexta) larvae", "No. of female Adults": 11}
{"molecule": "Clc1ccc(N2CC2c2ccccc2Cl)cc1 (stereo not shown) [Compound 11]", "measurement target": "tobacco hornworm (Manduca sexta) larvae", "No. of female Adults": 4}
{"molecule": "Clc1ccccc1C1CN1c1ccc(Br)cc1 (stereo not shown) [Compound 1]", "measurement target": "tobacco hornworm (Manduca sexta) larvae", "No. of female Adults": 10}

Then there is this molecule:
Input: Report No. of female Adults for FC(F)(F)c1ccc(N2CC2c2ccccc2Cl)cc1 (stereo not shown) [Compound 14] tested on tobacco hornworm (Manduca sexta) larvae.
Output: 9

----------
# Tested on: tobacco hornworm (Manduca sexta) larvae
# test details: Tobacco hornworm growth and developmental responses to feeding on diets containing the compounds
# Format: in vivo
# settings: 1 mM in diet
Could you please report measured % Pupation for the items listed next?
One number for each entry, in %.

Would you please look over these solved cases?
{"compound": "Fc1ccc(N2CC2c2ccccc2Cl)cc1 (stereo not shown)", "measurement target": "tobacco hornworm (Manduca sexta) larvae", "unit of measurement": "%", "% Pupation": 100}
{"compound": "FC(F)(F)c1ccc(N2CC2c2ccccc2Cl)cc1 (stereo not shown)", "measurement target": "tobacco hornworm (Manduca sexta) larvae", "unit of measurement": "%", "% Pupation": 93}
{"compound": "Clc1ccc(N2CC2c2ccccc2Cl)cc1 (stereo not shown)", "measurement target": "tobacco hornworm (Manduca sexta) larvae", "unit of measurement": "%", "% Pupation": 100}

Then there is this compound:
Input: Suppose we examine the compound Clc1ccccc1C1CN1c1ccc(Br)cc1 (stereo not shown) ; what % Pupation value has been reported?
Output: 100

----------
# Tested on: Salmonella typhimurium strains TA 98, TA 100, TA 1535, TA 1537, TA 1538, TA 1978
# test details: Ames assay (spot test), revertant colonies
# Assay type: cell-based
# settings: strain TA 98, +S9
Could you please report measured Mean number of revertant colonies per plate, TA 98 +S9 for the items listed next?
Enter the number, and then the unit.

Provide Mean number of revertant colonies per plate, TA 98 +S9 for all items below, preserving their order.
1. Clc1ccc(N2CC2c2ccccc2Cl)cc1Cl (stereo not shown) [Compound 10]
2. Clc1ccccc1C1CN1c1ccc(Br)cc1 (stereo not shown) [Compound 1]
3. Clc1ccc(N2CC2c2ccccc2Cl)cc1 (stereo not shown) [Compound 11]
4. CC(=O)Nc1ccc2c(c1)Cc1ccccc1-2 [AAF, 2-acetylaminofluorene, reference compound]

Output:
45.3 colonies per plate
44.0 colonies per plate
44.7 colonies per plate
284.7 colonies per plate

Hello, the source for this data is patent US4582827A, in case you need it.
